Origin of the recorded values: PubChem BioAssay AID489030

# subject.of.test: Apoptotic protease-activating factor 1 (Homo sapiens) (UniProt O14727)
# Sequence (O14727 whole entry, looked up): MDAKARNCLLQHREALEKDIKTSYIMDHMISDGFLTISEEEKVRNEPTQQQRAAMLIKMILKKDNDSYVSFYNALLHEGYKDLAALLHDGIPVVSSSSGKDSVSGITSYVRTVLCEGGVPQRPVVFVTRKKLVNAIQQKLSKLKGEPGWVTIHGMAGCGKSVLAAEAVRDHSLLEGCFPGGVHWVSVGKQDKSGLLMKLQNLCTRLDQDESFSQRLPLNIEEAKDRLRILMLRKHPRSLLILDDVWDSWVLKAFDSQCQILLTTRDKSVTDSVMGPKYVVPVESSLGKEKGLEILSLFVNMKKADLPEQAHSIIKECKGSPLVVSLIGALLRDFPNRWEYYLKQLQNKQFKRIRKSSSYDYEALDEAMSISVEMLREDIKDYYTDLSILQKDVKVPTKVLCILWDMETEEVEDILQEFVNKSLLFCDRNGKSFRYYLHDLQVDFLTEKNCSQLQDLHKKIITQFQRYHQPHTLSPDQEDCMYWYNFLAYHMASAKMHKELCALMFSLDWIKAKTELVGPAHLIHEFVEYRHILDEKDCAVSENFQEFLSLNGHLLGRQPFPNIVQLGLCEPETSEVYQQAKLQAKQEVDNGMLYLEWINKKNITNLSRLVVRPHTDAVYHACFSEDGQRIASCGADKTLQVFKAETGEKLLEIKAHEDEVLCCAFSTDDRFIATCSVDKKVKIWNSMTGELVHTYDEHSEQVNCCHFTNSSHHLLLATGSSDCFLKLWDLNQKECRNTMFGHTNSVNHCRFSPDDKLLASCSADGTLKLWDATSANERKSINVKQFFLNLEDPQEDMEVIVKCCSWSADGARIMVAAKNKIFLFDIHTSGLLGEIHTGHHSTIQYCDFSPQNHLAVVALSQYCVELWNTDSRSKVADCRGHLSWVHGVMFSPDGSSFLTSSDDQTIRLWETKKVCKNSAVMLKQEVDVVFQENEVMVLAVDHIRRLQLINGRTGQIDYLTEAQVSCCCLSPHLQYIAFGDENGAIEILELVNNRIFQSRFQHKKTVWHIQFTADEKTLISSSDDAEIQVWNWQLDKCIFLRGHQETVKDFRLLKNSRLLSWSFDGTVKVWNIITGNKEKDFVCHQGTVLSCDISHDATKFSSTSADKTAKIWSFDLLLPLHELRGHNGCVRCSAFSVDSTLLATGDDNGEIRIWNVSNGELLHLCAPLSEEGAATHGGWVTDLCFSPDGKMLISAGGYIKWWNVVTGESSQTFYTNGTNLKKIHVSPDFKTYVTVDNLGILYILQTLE
# measurement.notes: blockers of Apaf-1-driven caspase-3 activation – biochemical, DEVD-Rh110 fluorescence, uHTS, primary screen (AID 489030);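 also: plate controls were DMSO wells for no effect and DEVD-CHO caspase inhibitor wells for full effect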
# test.parameters: reconstituted apoptosome caspase-3 activity, at 20 µM
Hit rate of the full screen: of about 330,000 compounds, about 2,400 (0.73%) were called active. The calls were made as follows: active = inhibition of at least 40% at 20 µM; inactive = the rest. The list comes from a sample in which actives are over-represented; it also holds close analogues and randomly drawn compounds.
Classes used: t for active, f for inactive

>>> df
                                    compound  label
 0  CC(C)N(C(=O)[C@H]1C[C@H](CC(=O)NC(C)(C)C)C(=O)N2CCc3c([nH]c4ccc(Cl)cc34)[C@]12C)C(C)C      f
 1  CC(C)OC(=O)C(C#N)c1nc2ccccc2nc1N1CCN(Cc2ccccc2)CC1 (stereo unspecified)      f
 2                 Nc1nnnn1/N=C/c1cccc(Br)c1      f
 3   Cc1ccc(S(=O)(=O)N2CCN(c3ccccc3)CC2)cc1C      f
 4        Cn1cncc1C#Cc1c(-c2ccsc2)sc2ccccc12      f
 5  COc1ccc(/C=C2/C(=O)N(c3ccccc3)N=C2C)c(OC)c1      t
 6  COc1cccc(NC(=O)CSc2nccn(-c3ccc4c(c3)OCCO4)c2=O)c1      f
 7  Cc1nnc(Sc2nc3c(c(=O)[nH]c(=O)n3C)n2Cc2ccccc2)s1      f
 8  COc1cc(C2C(C(=O)c3cccs3)=C(O)C(=O)N2CCN2CCOCC2)ccc1OCCC(C)C (stereo unspecified)      f
 9              O=c1nc(N/N=C/c2ccco2)cn[nH]1      f
10  CC(NCc1ccccc1OC1CCCC1)c1ccccc1 (stereo unspecified)      f

###

# subject.of.test: Apoptotic protease-activating factor 1 (Homo sapiens)
# measurement.notes: blockers of Apaf-1-driven caspase-3 activation – biochemical, DEVD-Rh110 fluorescence, uHTS, primary screen (AID 489030)
# test.parameters: reconstituted apoptosome caspase-3 activity, at 20 µM
Screen size: about 330,000 compounds; about 2,400 (0.73%) were called active. How the source made its calls: active means inhibition of at least 40% at 20 µM; inactive means the rest. This excerpt belongs to a sample that is enriched for actives.
Classes used: yes = active, no = inactive

item.smiles	label
CCc1nc(C)cn1S(=O)(=O)c1cc([N+](=O)[O-])ccc1Cl	no
O=C(CCNS(=O)(=O)c1ccccc1)NCCSc1ccc(Br)cc1	yes
CCN(CC)CCCSc1nc2ccccc2s1	no
C#CCOCCOCCOCCNc1nc(N2CCN(C(=O)[C@H](CCC(=O)O)n3cc(CN)nn3)CC2)nc(N2CCN(C(=O)[C@H](CCC(=O)O)n3cc(CN)nn3)CC2)n1	no
C#CCOCCOCCOCCNc1nc(N2CCN(C(=O)[C@H](C(C)C)n3cc(CCO)nn3)CC2)nc(N2CCN(C(=O)[C@H]([C@@H](C)CC)n3cc(CCCN=C(N)N)nn3)CC2)n1	no
C#CCOCCOCCOCCNc1nc(N2CCN(C(=O)CCCCCCCCCCNC(=O)[C@H](CCCCN)n3cc(C)nn3)CC2)nc(N2CCN(C(=O)CCCCCCCCCCNC(=O)[C@H](CO)n3cc(CCCSC)nn3)CC2)n1	yes
Cc1noc(C)c1S(=O)(=O)N(C)C[C@H]1Oc2ccc(NC(=O)C3CCCCC3)cc2C(=O)N([C@H](C)CO)C[C@@H]1C	no
COc1ccccc1-c1sc2ccccc2c1-c1ccc(C(C)=O)cc1	no
COCCNC(=O)Nc1ccc2nc(-c3ccco3)c(-c3ccco3)nc2c1	yes
COc1cc(OC)cc(-c2sc3ccc(OC)cc3c2-c2ccc3cc[nH]c3c2)c1	no
O=[N+]([O-])c1c(NCCO)cc(Sc2nc3ccccc3s2)c2nonc12	yes
O=C(Nc1ccccc1C(=O)O)c1cc(S(=O)(=O)N2CCCCC2)cs1	no
CCCNC(=O)Nc1ccccc1C(=O)Nc1ccc(OC)cc1	no
COCCNC(=O)c1snc2ccc(Cl)cc12	no
CCN(c1ccc2c(c1)OCO2)S(=O)(=O)c1cc(Br)cc2c1N(C(=O)C1CC1)CC2	no
CCCCN(CC)CCNC(=O)c1[nH]c(C)c(C(C)=O)c1C	no
O=C1CSc2ccc(C(=O)NCc3ccccn3)cc2N1	no
COc1cccc(-c2sc3ccc(OC)cc3c2-c2ccc(OCCN3CCCCC3)cc2)c1	yes
COc1ccc(-c2sc3ccccc3c2-c2ccc(OCCN3CCOCC3)cc2)cc1	no

###

Measured inhibition accompanies every entry in the list below.
# subject.of.test: Apoptotic protease-activating factor 1 (Homo sapiens)
# measurement.notes: blockers of Apaf-1-driven caspase-3 activation – biochemical, DEVD-Rh110 fluorescence, uHTS, primary screen (AID 489030);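 also: plate controls were DMSO wells for no effect and DEVD-CHO caspase inhibitor wells for full effect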
# test.parameters: reconstituted apoptosome caspase-3 activity, at 20 µM, stronger effect = higher value
Screen size: about 330,000 compounds; about 2,400 (0.73%) were called active. For the sample, actives were picked, then their nearest neighbours and some compounds at random.
experimental.readout: inhibition

                                   molecule             result
0  CCOc1ccc(N2CC(C(=O)NCc3ccccn3)CC2=O)cc1 (stereo not given)   1.44% (inactive)
1  Cc1cccc(C)c1Nc1nnc(SCC(=O)NCCCN2CCCC2=O)s1  -3.15% (inactive)
2  Cc1cc(C)n(-c2nc(SCC(=O)N3CCCC3)c3c4c(sc3n2)CCCC4)n1     43.6% (active)
3  COc1cccc2sc3cc(NCC[C@@H]4CCCN4C)ccc3c(=O)c12   39.7% (inactive)
4  CC(C)[C@@H]1COC(c2cccc(C3=N[C@H](C(C)C)CO3)c2)=N1   9.42% (inactive)

###

# subject.of.test: Apoptotic protease-activating factor 1 (Homo sapiens)
# measurement.notes: blockers of Apaf-1-driven caspase-3 activation – biochemical, DEVD-Rh110 fluorescence, uHTS, primary screen (AID 489030);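 also: plate controls were DMSO wells for no effect and DEVD-CHO caspase inhibitor wells for full effect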
# test.parameters: reconstituted apoptosome caspase-3 activity, at 20 µM
Screen size: about 330,000 compounds; about 2,400 (0.73%) were called active. How the source made its calls: active means inhibition of at least 40% at 20 µM; inactive means the rest. The sample as a whole holds a higher share of actives than the screen did.
Classes used: active, inactive

>>> print(df.to_string())
                                    compound     label
 0              CN(C)CCOc1ccc(Cl)cc1C(C)(C)C  inactive
 1  Cn1c(=O)c2c(nc(N3CCOCC3)n2CCNC2=NCCC2)n(C)c1=O  inactive
 2       Cc1cccc(/C(N)=N/OC(=O)c2ccccc2Cl)c1  inactive
 3  O=C(/C=C/c1ccc([N+](=O)[O-])cc1)NCCSCc1ccco1  inactive
 4  c1ccc(C2CNCc3c2ccc2ccccc32)cc1 (stereo not given)  inactive
 5  CCCCN1C(=S)NC[C@@H]1C(C)CC (stereo not given in full)  inactive
 6  CCCS(=O)(=O)C(=C1Nc2ccccc2N1)S(=O)(=O)CCC  inactive
 7  CN(Cc1ccccc1)C(=O)c1ccc(NC2=NC3CS(=O)(=O)CC3S2)cc1 (stereo not given)  inactive
 8         NC(N)=NCCCc1cn(CC(=O)N2CCNCC2)nn1    active
 9    Cc1cccc(C)c1NC(=O)CNC(=O)Cc1ccc(Br)cc1  inactive
10  CCOC(=O)CCC(=O)OCC(=O)NC(C)C1CC2CCC1C2 (stereo not given)  inactive
11    C=CCNc1nc(N)c(C(=C(C#N)C#N)c2ccccc2)s1  inactive
12  CCC(C)[C@@H](C(=O)N1CCNCC1)n1cc(CCCCN)nn1 (stereo not given in full)  inactive
13             O=C1CCNCCN1[C@H](CO)Cc1ccccc1  inactive
14  Cc1ccc(NC(=O)CN(C)C(=O)Cn2nnc(-c3ccccc3)n2)cc1  inactive
15  CC(OC(=O)c1ccc(NS(=O)(=O)c2ccc3[nH]c(=O)[nH]c3c2)cc1)C(=O)Nc1cccc(Cl)c1Cl (stereo not given)  inactive
16  c1ccc(C[C@H]2CNCCN2CCC23CC4CC(CC(C4)C2)C3)cc1    active
17  CCc1ccc(/C=N/NC(=O)c2nnn(-c3nonc3N)c2CN2CCc3ccccc32)cc1  inactive
18  COc1ccc(-n2nc(C(=O)Nc3cc(OC)c(OC)c(OC)c3)c3ccccc3c2=O)c(OC)c1  inactive
19   C[C@@H](C(=O)N1CCNCC1)n1cc(CCC(=O)O)nn1  inactive

###

# subject.of.test: Apoptotic protease-activating factor 1 (Homo sapiens) (UniProt O14727)
# measurement.notes: blockers of Apaf-1-driven caspase-3 activation – biochemical, DEVD-Rh110 fluorescence, uHTS, primary screen (AID 489030);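 also: plate controls were DMSO wells for no effect and DEVD-CHO caspase inhibitor wells for full effect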
# test.parameters: reconstituted apoptosome caspase-3 activity, at 20 µM
In all, about 330,000 compounds went through this assay and about 2,400 (0.73%) were called active. Rule for the calls: active = inhibition of at least 40% at 20 µM; inactive = the rest. The entries come from a sample that favours actives as a whole.
Classes used: t = active, f = inactive

>>> df
                                    molecule  label
 0  CN(CCc1cn[nH]c1)C(=O)CC1C(=O)NCCN1Cc1cccc(Oc2ccccc2)c1 (stereo unspecified)      f
 1  CCCCN(CCCC)CCC(O)c1cc2c(Cl)cc(Cl)cc2c2cc(C(F)(F)F)ccc12 (stereo unspecified)      t
 2  CCN(CC)S(=O)(=O)c1cc([N+](=O)[O-])ccc1NNC(=O)Nc1ccccc1      f
 3  C/C(=N\NC(=O)CNc1cccc2ccccc12)c1ccc(Br)s1      t
 4  C(=N/Nc1cc(N2CCOCC2)nc(N2CCOCC2)n1)/c1ccccc1      t
 5  CC[C@]1(C(=O)OC)[C@H]2C(=O)N(Cc3ccccc3)C(=O)[C@H]2[C@H]2CN=C(SCc3ccccc3)N21      f
 6  COC(=O)[C@@H]1C[C@@]2(O)[C@H](O)[C@H](O)[C@H](O)C[C@H]2N1Cc1ccc(C(C)(C)C)cc1      f
 7  CC(C)CC[n+]1ccn(C2=C([O-])c3ccccc3C(=O)/C2=N\S(=O)(=O)c2ccccc2)c1      t
 8  OC(CNCC1CCCO1)Cn1c2ccc(Br)cc2c2cc(Br)ccc21 (stereo unspecified)      t
 9    CC1(C)CC(=O)C2=C(C1)NCN(CCCN1CCOCC1)C2      f
10      O=C(CCC(=O)OCC(F)(F)C(F)F)NCc1ccccc1      f
11  CCOC(=O)c1sc(C)c2c1NC(C)(c1cccc3ccccc13)NC2=O (stereo unspecified)      f
12  COc1ccc(N2CCN(CCNC(=O)c3nnc(Cc4c(F)cccc4Cl)o3)CC2)cc1      f
13  Cc1cc(NC(=O)C(C)SCC(=O)Nc2ccccc2N2CCCCC2)no1 (stereo unspecified)      f
14  COc1ccc(NS(=O)(=O)c2ccc3oc(SCC(N)=O)nc3c2)cc1      f
15  CN(CC(=O)Nc1ccccc1Cl)C(=O)c1ccccc1SCC(=O)N1CCCC1      f
16  COc1ccc(S(=O)(=O)N(C)C)cc1NC(=O)CSc1ncccn1      f
17  Cc1ccc(/C=C(\C#N)C(=O)Nc2cccc3ncccc23)o1      f
18  COc1ccc(C(CNC(=O)c2ccc(S(=O)(=O)Nc3ccccc3F)cc2)N(C)C)cc1 (stereo unspecified)      t
19  CN(C)S(=O)(=O)c1ccc2oc(SCC(=O)Nc3ccccc3F)nc2c1      t
20      Cc1ccc2c(Cl)c(C(=O)NCCCn3ccnc3)sc2c1      f
21  O=C(c1cnccn1)N1CCN(S(=O)(=O)c2cccc(Cl)c2)CC1      f
22  CCC(=O)c1ccc(OCC(=O)Nc2ccc(N3CCCCC3)cc2)cc1      f
23        Cn1c(SCC(=O)C(C)(C)C)nnc1-c1ccccn1      f
24  CC(C)N(Cc1ccccc1)C(=O)COC(=O)c1ccccc1SCC(=O)N1CCCC1      f
25  COc1ccc(/C=N/Nc2cc(N3CCOCC3)nc(C)n2)c(OC)c1      f
26      CCOc1ccc(NCCC(=O)c2ccc3c(c2)OCO3)cc1      f
27  O=C(O)c1cc(Cl)c(Cl)cc1C(=O)Nc1cccc2ncccc12      t
28  CCCCC(=O)Nc1ccc(C(=O)Nc2cc(C(F)(F)F)ccc2Cl)cc1      f
29  COc1ccc(-c2cc(C(=O)N/N=C/c3cccnc3)c3ccccc3n2)c(OC)c1      f
30  CNC(=O)NC(=O)CSc1nnc(-c2ccc(F)cc2)n1CC1CCCO1 (stereo unspecified)      f
31             C=CC(=O)OCCOCCOCCOCCOC(=O)C=C      f
32  COCCNC(=O)c1ccc(Cn2c(SCC(=O)NCC3CCCO3)nc3ccc(Br)cc3c2=O)cc1 (stereo unspecified)      f
33  CN(C)c1ccc(/C=N/Nc2cc(N3CCOCC3)nc(N3CCOCC3)n2)cc1      f
34           O=C(NCCCn1ccnc1)c1cc2c(s1)CCCC2      f
35     COc1ccc(NS(=O)(=O)c2cccc3nsnc23)cc1Cl      f
